# STUDY_SYSTEM: p38MAPKα (Homo sapiens, UniProt Q16539)
# Construct: purchased Invitrogen
# Sequence (Q16539 whole entry): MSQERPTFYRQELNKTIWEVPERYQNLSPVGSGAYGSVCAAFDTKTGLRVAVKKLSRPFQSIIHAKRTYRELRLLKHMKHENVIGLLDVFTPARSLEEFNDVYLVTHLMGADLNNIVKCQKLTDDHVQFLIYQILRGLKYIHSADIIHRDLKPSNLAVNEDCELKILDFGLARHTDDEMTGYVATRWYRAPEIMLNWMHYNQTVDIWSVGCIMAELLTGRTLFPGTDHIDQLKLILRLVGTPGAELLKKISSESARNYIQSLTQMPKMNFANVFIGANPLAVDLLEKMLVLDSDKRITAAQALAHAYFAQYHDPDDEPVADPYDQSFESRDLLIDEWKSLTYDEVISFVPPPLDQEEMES
# EXPERIMENTAL_DETAILS: Kinase enzyme activity, FRET (Z-LYTE)
# Type: biochemical
# SETTINGS: 10 μM ATP, via MAPKAP-K2
REPORTED_METRIC: IC50

[[record]]
compound = "COc1ccc(-c2cc3nccn3c(Nc3ncccc3C(N)=O)n2)cc1OC [BAY 61-3606]"
data_value = "> 3310 nM"


====

# STUDY_SYSTEM: HCK (Homo sapiens)
# Sequence (P08631 whole entry): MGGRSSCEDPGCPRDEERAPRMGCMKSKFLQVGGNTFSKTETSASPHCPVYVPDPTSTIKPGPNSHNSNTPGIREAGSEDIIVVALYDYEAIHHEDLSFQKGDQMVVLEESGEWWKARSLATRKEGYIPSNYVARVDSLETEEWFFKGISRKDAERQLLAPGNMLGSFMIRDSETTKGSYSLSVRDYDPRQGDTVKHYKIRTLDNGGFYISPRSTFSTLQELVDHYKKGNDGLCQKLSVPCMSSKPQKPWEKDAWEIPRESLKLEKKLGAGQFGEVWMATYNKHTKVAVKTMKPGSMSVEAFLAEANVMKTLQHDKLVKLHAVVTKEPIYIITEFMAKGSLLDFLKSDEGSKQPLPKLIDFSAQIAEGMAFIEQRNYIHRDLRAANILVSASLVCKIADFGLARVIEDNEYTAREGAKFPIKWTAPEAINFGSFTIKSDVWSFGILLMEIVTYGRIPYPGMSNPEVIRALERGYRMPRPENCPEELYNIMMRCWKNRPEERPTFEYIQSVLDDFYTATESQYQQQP
# EXPERIMENTAL_DETAILS: Kinase enzyme activity, FRET (Z-LYTE)
# Format: biochemical
# SETTINGS: 15 μM ATP
REPORTED_METRIC: IC50

[[record]]
given_smiles = "COc1ccc(-c2cc3nccn3c(Nc3ncccc3C(N)=O)n2)cc1OC"
data_value = "> 3310 nM"


====

# STUDY_SYSTEM: SYK (Homo sapiens)
# EXPERIMENTAL_DETAILS: Kinase enzyme activity, FRET (Z-LYTE)
# Type: biochemical
# SETTINGS: 15 μM ATP
REPORTED_METRIC: IC50

[[record]]
compound = "COCC(=O)Nc1cc(COc2ccc(NC(=O)Nc3cc(C(C)(C)C)nn3-c3ccc(C)cc3)c3ccccc23)ccn1 [Reference Compound 1, reference compound]"
data_value = "> 17800 nM"

